target: human orexin-1 receptor (Homo sapiens); assay: Intracellular calcium measurement (FLIPR), antagonism of orexin-A response in CHO cells expressing OX1R
readout: IC50 (nM)

- mol: "C[C@@H]1CCCN(C(=O)c2c(-c3ccccc3)nn3c2COCC3)[C@@H]1CNc1ccc(C(F)(F)F)cn1"
  readout: "IC50"
  result: 9
- mol: "C[C@@H]1CCCN(C(=O)c2c(-c3ccccc3)nn3ccccc23)[C@@H]1CNc1ccc(C(F)(F)F)cn1"
  readout: "IC50"
  result: 8
- mol: "C[C@@H]1CCCN(C(=O)c2c(-c3ccccc3)nc3ccccn23)[C@@H]1CNc1ccc(C(F)(F)F)cn1"
  readout: "IC50"
  result: 5
- mol: "O=C(c1c(-c2ccccc2)nn2c1COCC2)N1CCC[C@H]1Cn1ccc(-c2ccccc2)n1"
  readout: "IC50"
  result: 33

---

Measured Kb values are reported for all entries that follow.
target: human orexin-1 receptor (Homo sapiens, UniProt O43613); assay: Intracellular calcium measurement (FLIPR), antagonism of orexin-A response in CHO cells expressing OX1R
Sequence (O43613 whole entry): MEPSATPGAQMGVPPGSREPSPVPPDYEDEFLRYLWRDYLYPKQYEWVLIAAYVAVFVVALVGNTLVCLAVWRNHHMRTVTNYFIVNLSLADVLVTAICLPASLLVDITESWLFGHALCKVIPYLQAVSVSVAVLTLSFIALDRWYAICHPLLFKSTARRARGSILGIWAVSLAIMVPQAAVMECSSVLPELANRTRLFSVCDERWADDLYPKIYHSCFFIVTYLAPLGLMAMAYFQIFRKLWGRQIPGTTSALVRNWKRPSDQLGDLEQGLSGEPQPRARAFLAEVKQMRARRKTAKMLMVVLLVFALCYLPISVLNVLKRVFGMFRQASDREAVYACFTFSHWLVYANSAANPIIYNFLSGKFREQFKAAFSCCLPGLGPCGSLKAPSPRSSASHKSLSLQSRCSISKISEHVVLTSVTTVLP

- mol: "O=C(c1c(-c2ccccc2)nn2ccccc12)N1CCC[C@H]1COc1ccc(C(F)(F)F)cn1"
  tgt: "human orexin-1 receptor (Homo sapiens, UniProt O43613)"
  Kb: "2 nM"
- mol: "C[C@@H]1CCCN(C(=O)c2c(-c3ccccc3)nc3ccccn23)[C@@H]1CNc1ccc(C(F)(F)F)cn1"
  tgt: "human orexin-1 receptor (Homo sapiens, UniProt O43613)"
  Kb: "1 nM"
- mol: "CCc1cnc(NC[C@@H]2CCCN2C(=O)c2c(-c3ccccc3)nn3ccccc23)nc1"
  tgt: "human orexin-1 receptor (Homo sapiens, UniProt O43613)"
  Kb: "37 nM"
- mol: "O=C(c1c(-c2ccccc2)nn2c1COCC2)N1CCC[C@H]1Cn1ccc(-c2ccccc2)n1"
  tgt: "human orexin-1 receptor (Homo sapiens, UniProt O43613)"
  Kb: "7 nM"
- mol: "O=C(c1c(-c2ccccc2)nn2c1COCC2)N1CCC[C@H]1CNc1ccc(C(F)(F)F)cn1"
  tgt: "human orexin-1 receptor (Homo sapiens, UniProt O43613)"
  Kb: "26 nM"
- mol: "C[C@@H]1CCCN(C(=O)c2c(-c3ccccc3)nn3ccccc23)[C@@H]1CNc1ccc(C(F)(F)F)cn1"
  tgt: "human orexin-1 receptor (Homo sapiens, UniProt O43613)"
  Kb: "1.7 nM"
- mol: "O=C(c1c(-c2ccccc2)nc2ccccn12)N1CCC[C@H]1COc1ccc(C(F)(F)F)cn1"
  tgt: "human orexin-1 receptor (Homo sapiens, UniProt O43613)"
  Kb: "62 nM"
- mol: "O=C(c1c(-c2ccccc2)nc2ccccn12)N1CCC[C@H]1Cn1ccc(-c2ccccc2)n1"
  tgt: "human orexin-1 receptor (Homo sapiens, UniProt O43613)"
  Kb: "0.5 nM"
- mol: "O=C(c1c(-c2ccccc2)nc2ccccn12)N1CCC[C@H]1CNc1ccc(C(F)(F)F)cn1"
  tgt: "human orexin-1 receptor (Homo sapiens, UniProt O43613)"
  Kb: "8 nM"
- mol: "CCc1cnc(NC[C@@H]2[C@H](C)CCCN2C(=O)c2c(-c3ccccc3)nc3ccccn23)nc1"
  tgt: "human orexin-1 receptor (Homo sapiens, UniProt O43613)"
  Kb: "12 nM"
- mol: "C[C@@H]1CCCN(C(=O)c2c(-c3ccccc3)nn3c2COCC3)[C@@H]1CNc1ccc(C(F)(F)F)cn1"
  tgt: "human orexin-1 receptor (Homo sapiens, UniProt O43613)"
  Kb: "2 nM"
- mol: "O=C(c1c(-c2ccccc2)nn2ccccc12)N1CCC[C@H]1CNc1ccc(C(F)(F)F)cn1"
  tgt: "human orexin-1 receptor (Homo sapiens, UniProt O43613)"
  Kb: "0.7 nM"
- mol: "CCc1cnc(NC[C@@H]2[C@H](C)CCCN2C(=O)c2c(-c3ccccc3)nn3c2COCC3)nc1"
  tgt: "human orexin-1 receptor (Homo sapiens, UniProt O43613)"
  Kb: "29 nM"

---

Biological target: human orexin-2 receptor (Homo sapiens)
Sequence (O43614 1-444): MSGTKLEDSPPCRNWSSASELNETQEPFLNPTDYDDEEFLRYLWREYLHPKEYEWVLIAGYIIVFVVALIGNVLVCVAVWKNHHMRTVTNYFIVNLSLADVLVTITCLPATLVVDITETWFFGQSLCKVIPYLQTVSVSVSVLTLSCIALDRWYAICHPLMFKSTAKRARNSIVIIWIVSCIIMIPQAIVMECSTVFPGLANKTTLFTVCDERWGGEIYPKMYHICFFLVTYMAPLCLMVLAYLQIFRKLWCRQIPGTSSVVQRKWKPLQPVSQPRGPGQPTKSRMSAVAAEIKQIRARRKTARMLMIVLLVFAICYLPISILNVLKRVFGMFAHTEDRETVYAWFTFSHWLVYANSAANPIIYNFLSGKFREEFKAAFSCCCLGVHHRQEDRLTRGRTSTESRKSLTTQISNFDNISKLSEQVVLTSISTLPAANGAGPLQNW
Test: Intracellular calcium measurement (FLIPR), antagonism of orexin-A response in CHO cells expressing OX2R
Details: CHO, read-out: % Inhibition of OX2R @1 uM compound
# cutoff 20% applies to inhibition at 1 µM; >= gives 1.0, < gives 0.0

- compound: "O=C(c1c(-c2ccccc2)nn2ccccc12)N1CCC[C@H]1Cn1ccc(-c2ccccc2)n1 [Example 13]"
  class_label: 1.0
- compound: "C[C@@H]1CCCN(C(=O)c2c(-c3ccccc3)nn3c2COCC3)[C@@H]1CNc1ccc(C(F)(F)F)cn1 [Example 7]"
  class_label: 0.0
- compound: "CCc1cnc(NC[C@@H]2CCCN2C(=O)c2c(-c3ccccc3)nc3ccccn23)nc1 [Example 14]"
  class_label: 0.0
- compound: "CCc1cnc(OC[C@@H]2CCCN2C(=O)c2c(-c3ccccc3)nn3c2COCC3)nc1 [Example 16]"
  class_label: 0.0
- compound: "CCc1cnc(NC[C@@H]2[C@H](C)CCCN2C(=O)c2c(-c3ccccc3)nn3ccccc23)nc1 [Example 4]"
  class_label: 0.0
- compound: "O=C(c1c(-c2ccccc2)nn2ccccc12)N1CCC[C@H]1CNc1ccc(C(F)(F)F)cn1 [Example 10]"
  class_label: 1.0
- compound: "C[C@@H]1CCCN(C(=O)c2c(-c3ccccc3)nn3ccccc23)[C@@H]1CNc1ccc(C(F)(F)F)cn1 [Example 6]"
  class_label: 1.0
- compound: "CCc1cnc(NC[C@@H]2CCCN2C(=O)c2c(-c3ccccc3)nn3c2COCC3)nc1 [Example 3]"
  class_label: 0.0

---

target: human orexin-2 receptor (Homo sapiens); assay: Intracellular calcium measurement (FLIPR), antagonism of orexin-A response in CHO cells expressing OX2R; settings: CHO, read-out: % Inhibition of OX2R @1 uM compound
readout: inhibition at 1 µM

- molecule: "C[C@@H]1CCCN(C(=O)c2c(-c3ccccc3)nc3ccccn23)[C@@H]1CNc1ccc(C(F)(F)F)cn1 [Example 8]"
  result: "13.8%"
- molecule: "O=C(c1c(-c2ccccc2)nc2ccccn12)N1CCC[C@H]1CNc1ccc(C(F)(F)F)cn1 [Example 11]"
  result: "21.6%"
- molecule: "O=C(c1c(-c2ccccc2)nn2ccccc12)N1CCC[C@H]1COc1ccc(C(F)(F)F)cn1 [Example 20]"
  result: "49.6%"
- molecule: "CCc1cnc(NC[C@@H]2CCCN2C(=O)c2c(-c3ccccc3)nn3ccccc23)nc1 [Example 15]"
  result: "37.3%"
- molecule: "O=C(c1c(-c2ccccc2)nn2c1COCC2)N1CCC[C@H]1COc1ccc(C(F)(F)F)cn1 [Example 17]"
  result: "5.78%"
- molecule: "O=C(c1c(-c2ccccc2)nn2c1COCC2)N1CCC[C@H]1CNc1ccc(C(F)(F)F)cn1 [Example 2]"
  result: "20.9%"
- molecule: "CCc1cnc(OC[C@@H]2CCCN2C(=O)c2c(-c3ccccc3)nn3ccccc23)nc1 [Example 21]"
  result: "26.9%"
- molecule: "O=C(c1c(-c2ccccc2)nc2ccccn12)N1CCC[C@H]1COc1ccc(C(F)(F)F)cn1 [Example 18]"
  result: "29.6%"

---

Measured pIC50 values are reported for all entries that follow.
biological target: UniProt O43613; assay: Intracellular calcium measurement (FLIPR), antagonism of orexin-A response in CHO cells expressing OX1R
pIC50: −log10 of the molar value.

- compound: "O=C(c1c(-c2ccccc2)nn2ccccc12)N1CCC[C@H]1CNc1ccc(C(F)(F)F)cn1 [Example 10]"
  pIC50: 8.46
- compound: "CCc1cnc(NC[C@@H]2[C@H](C)CCCN2C(=O)c2c(-c3ccccc3)nn3c2COCC3)nc1 [Example 5]"
  pIC50: 6.87
- compound: "O=C(c1c(-c2ccccc2)nn2c1COCC2)N1CCC[C@H]1CNc1ccc(C(F)(F)F)cn1 [Example 2]"
  pIC50: 6.91
- compound: "CCc1cnc(NC[C@@H]2CCCN2C(=O)c2c(-c3ccccc3)nn3ccccc23)nc1 [Example 15]"
  pIC50: 6.75
- compound: "O=C(c1c(-c2ccccc2)nc2ccccn12)N1CCC[C@H]1Cn1ccc(-c2ccccc2)n1 [Example 12]"
  pIC50: 8.70
- compound: "O=C(c1c(-c2ccccc2)nn2ccccc12)N1CCC[C@H]1COc1ccc(C(F)(F)F)cn1 [Example 20]"
  pIC50: 7.96
- compound: "CCc1cnc(NC[C@@H]2[C@H](C)CCCN2C(=O)c2c(-c3ccccc3)nc3ccccn23)nc1 [Example 9]"
  pIC50: 7.23
- compound: "O=C(c1c(-c2ccccc2)nc2ccccn12)N1CCC[C@H]1COc1ccc(C(F)(F)F)cn1 [Example 18]"
  pIC50: 6.53
- compound: "O=C(c1c(-c2ccccc2)nc2ccccn12)N1CCC[C@H]1CNc1ccc(C(F)(F)F)cn1 [Example 11]"
  pIC50: 7.41
